Tested on: CCRF-CEM leukemia
Assay: NCI-60 one-dose screen, 48 h
Details: 10 µM unless noted
The panel holds about 83,000 compounds, 20% with a hit somewhere; the sample as a whole holds those more often. The source made the active and inactive calls. The calls were made as follows: active = growth percent below 10; inactive = the rest.
Respond with a class label; see True (active), False (inactive)

CSc1nc(-c2ccco2)c(C#N)c(=O)n1C	False
Cc1ccc(NC(=O)c2cc3ccccc3cc2O)c(C)c1	False
CCCCCCCCCCOC(=O)c1nn(C(C)=O)c2cc(C)c(C)cc12	False
COc1ccc2c(O)c(/C=C3\N=Nc4ncccc43)oc2c1C[C@@H]1CCNC[C@H]1F	True
COC(=O)c1ccc2cc(OC)c(OC)cc2c1	False
CC12OC(CC(O)C1O)n1c3ccccc3c3c4c(c5c6ccccc6n2c5c31)C(=O)N(CCN1CCCC1)C4=O (centres undefined)	False

Please indicate how the test categorized `CC(=O)c1ccc(-n2cc(CN3CCN(c4cc5c(cc4F)c(=O)c(C(=O)O)cn5C4CC4)CC3)nn2)cc1` . False

Short answer needed: outcome of this test for `N#Cc1c(-c2ccc(Br)cc2)nc2c(N=Nc3ccc(S(N)(=O)=O)cc3)c(N)nn2c1N` ? True

Recorded test call requested for COc1ccc(-c2cc(C(=O)N3N=C(c4ccc(N)cc4)CC3c3ccc(Cl)cc3)c3ccccc3n2)cc1 (centres undefined) False

Recorded test outcome, item `CC(=O)c1sc(-c2ccc(F)cc2)cc1O` False

Any idea what this test logged for O=C1CCCC1[n+]1ccccc1 (centres undefined) ? False

Dear all, I need the recorded test outcome for COC1/C=C/OC2(C)Oc3c(C)c(O)c4c(O)c(c(/C=N/N(c5ccccc5)c5ccccc5)c(O)c4c3C2=O)NC(=O)C(C)=C/C=C/C(C)C(O)C(C)C(O)C(C)C(OC(C)=O)C1C (centres undefined) , thank you. False

Name the outcome recorded for CCn1cc(C(=O)N/N=C/c2cccc(F)c2)c(=O)c2cc(F)c(N3CCNC(C)C3)c(F)c21 (centres undefined) in the assay. True

Would you mind telling me which call this test gave `Clc1ccc2nn3c4ccccc4c(OCCN4CCOCC4)nc3c2c1` ? False

Dear colleague, could you share the recorded outcome for COc1ccc(/C=C/C(c2cc(OC)c(OC)c(OC)c2)n2cncn2)cc1O (centres undefined) when you have a moment? True

* * *

Test system: NCI-H460 lung
Test: NCI-60 one-dose screen, 48 h (100 = growth as untreated, 0 = no growth, -100 = all killed)
Settings: 10 µM unless noted
Experimental: Growth inhibition of the NCI-H460 human Non-Small Cell Lung tumor cell line is measured as a screen for anti-cancer activity. Cells are grown in 96 well plates and exposed to the test compound for 48 hours. Compounds are tested at a single concentration, which is 10^-5 M for most compounds. The reported endpoint is percent growth (GI% or GIPRCNT), where numbers from 0 - 100% represent growth inhibition, and numbers from -100% - 0 represent cell death. […]
This is part of a sample that, as a whole, favours compounds with a hit. Of some 83,000 tested, about 20% had one in any assay.
A collection of compounds and their measured growth
Report the figure in % without appending any unit label.

Here is how some compounds turned out for growth.
C1CCC(N2CN3c4nonc4N4CN(C5CCCCC5)CN5c6nonc6N(C2)C3C45)CC1 (centres undefined)	99.4
CC1(C)CC[C@]23CC[C@]4(C)[C@H](CC[C@@H]5[C@@]6(C)CCNCC(C)(C)[C@@H]6CC[C@]54C)[C@H]2[C@H]1OC3	23.7

Recorded result, `Fc1ccc(/C=C/[C@@H]2C[C@@H](F)CCO2)cc1` , growth: 99.7

Lookup result for COc1ccc(C2[C@@H](c3ccccc3)C(=O)N2c2cc(OC)c(OC)c(OC)c2)cc1F (some centres undefined) ; measured growth: 5.92

Reported growth of `COc1cccc(-c2cn3nc(-c4cn(C)c5ccccc45)sc3n2)c1` : 101

Measured growth of `CCN1CCN(CCNc2nccc(-c3c(-c4ccc(F)c(O)c4)nc4occn34)n2)S1(=O)=O` : 34.9

// field: growth; key: `Cc1cc(=O)n(C(=S)Nc2ccc(Cl)cc2)c2cc(O)ccc12` ; value = 110

Measured growth, `CCN(CC)CCOc1ccc2c(-c3ccccc3)c(-c3ccc(OC)cc3)c(=O)oc2c1` : 57.4

growth reading for `CCn1cc(Cc2cc(C(=O)Nc3cc4cc(OC)c(OC)cc4c(C)n3)ccc2Cl)cn1` : 76.3

* * *

Tested on: KM12 colon
Assay: NCI-60 one-dose screen, 48 h (100 = growth as untreated, 0 = no growth, -100 = all killed)
Conditions: 10 µM unless noted
The panel holds about 83,000 compounds, 20% with a hit somewhere; the sample as a whole holds those more often.
value.type: growth (%)
API: value field is a number in %; no unit string.

// solved cases for growth follow
C[C@@H]1CN(c2cnc(C(=O)Nc3cc(F)cc4cccnc34)cn2)C[C@H](C)N1	83.4
COCCn1cc(-c2csc(-c3c[nH]c4ccccc34)n2)c2cccnc21	15.6
COC(=O)/C=C1/SC(=Nc2ccc(F)cc2)N(CCc2c[nH]c3ccc(O)cc23)C1=O	38.3
Cc1ccc2c(/C=C/C(=O)c3cc(CN4CCOCC4)c(O)c4nc(C)ccc34)cc(CN3CCOCC3)c(O)c2n1	-59.3
CNCC[C@H](Oc1cccc2ccccc12)c1cccs1	109

CC1(/C=C/c2ccc(-c3ccccc3)cc2)CCn2cnc3ncnc(c32)N1O (centres undefined) yielded growth of 26

Record `C/C(Cc1ccc(Cl)cc1)=C(\c1ccc(OCCN2CCCCCC2)cc1)c1ccc(OC(=O)c2ccccc2)cc1` . Reported growth: 32

compound `O=C(/C=C/c1ccccc1Cl)c1cccc(OCCCCOc2cccc(C(=O)/C=C/c3ccccc3Cl)c2)c1` , growth observed: 101

Short answer for `CC(=O)c1ccc(-n2cc(CN3CCN(c4cc5c(cc4F)c(=O)c(C(=O)O)cn5C4CC4)CC3)nn2)cc1` : growth was 84.9

* * *

System: NCI-H522 lung
Experiment: NCI-60 one-dose screen, 48 h
Details: 10 µM unless noted
The panel holds about 83,000 compounds, 20% with a hit somewhere; the sample as a whole holds those more often. Calls of active or inactive are those of the source. The calls were made as follows: active = growth percent below 10; inactive = the rest.
Field 'call' accepts 1 (active), -1 (inactive)

The following molecules have reported results that may help.
O=C(NCCN1CCOCC1)OCc1ccc2c(Cl)cc(Cl)c(O)c2n1	-1
C=C1C(=O)O[C@H]2[C@H]1CC/C(COC(=O)NCc1ccc(Cn3c(=O)sn(-c4ccccc4)c3=O)cc1)=C\CC[C@@]1(C)O[C@@H]21	1
O=C(O)c1cn(C2CC2)c2cc(N3CCN(C(=O)N4CCOCC4)CC3)c(F)cc2c1=O	-1
CCNC(=O)N1CCc2c(Br)c3c(c(OC)c2C1Cc1ccc(OC)cc1)OCO3 (configuration not stated)	-1
ClCCn1cnc2c(SCc3ccccc3)ncnc21	-1
O=c1cc(CNc2cc(F)cc(F)c2)c2ccc(I)cc2[nH]1	-1

Could you now look at the following molecule, please?
Called result for `C=C(C)[C@@H]1CC[C@]2(C(=O)N3CCN(C)CC3)CC[C@]3(C)[C@H](CC[C@@H]4[C@@](C)(CCC(=O)O)[C@H](C(=C)C)CC[C@]43C)[C@@H]12` -1

* * *

System: SF-539 CNS
Test: NCI-60 one-dose screen, 48 h
Settings: 10 µM unless noted
About 83,000 compounds went through this panel and 20% of them were active in at least one assay; those are over-represented in the sample as a whole. Activity calls are given as the source filed them. Rule for the calls: active = growth percent below 10; inactive = the rest.
Could you please pick one outcome from this set? true for active, false for inactive

c1cc(OCCN2CCCCCC2)ccc1CNc1ccc2nc(CCC3CCCCC3)[nH]c2c1	false
Cc1ccc(C)c2c1sc1nc(N3CCOCC3)c(C#N)c(=O)n12	false
c1cc(OCCN2CCCCC2)ccc1CNc1ccc2nc(CCC3CCCCC3)[nH]c2c1	true
CC/C(=C(/c1ccc(O)cc1)c1ccc(OCCN2CCCCC2)cc1)c1ccc(OC)cc1	false
COCCn1cc(-c2csc(-c3c[nH]c4ccc(F)cc34)n2)c2cccnc21	false

Entry `Cc1ccc(OCCOCCOCCOCCOCCOc2ccc(C)n(O)c2=S)c(=S)n1O` : call = ? true

Given `N#Cc1c(-c2ccccc2)nc2c(c(-c3ccc(Cl)cc3)nn2-c2ccccc2)c1-c1ccc([N+](=O)[O-])cc1` , state the outcome it received in this test. false

Identify the outcome logged in this assay for the compound shown: `C=C1C(=O)O[C@H]2[C@H]1CC/C(CNC(=O)Cc1c[nH]c3ccccc13)=C\CC[C@@]1(C)O[C@@H]21` true

What did the test return for `Cc1ccc2c(/C=C/C(=O)c3cc(CN4CCOCC4)c(O)c4nc(C)ccc34)cc(CN3CCOCC3)c(O)c2n1` ? true

Outcome? `CN(C)c1ccc([C@@H](C(=O)Nc2cccc([N+](=O)[O-])c2)N(C(=O)c2cc3ccccc3[nH]2)c2cccc([N+](=O)[O-])c2)cc1` false

Dear colleague, could you share the recorded outcome for O=C(NC1CCC(Br)CC1)C1CCCC(S(=O)(=O)NC2CCCCC2)C1 (configuration not stated) when you have a moment? false

What was the test verdict on `COc1ccc2c(O)c(/C=C3\N=Nc4ncccc43)oc2c1C[C@@H]1CCNC[C@H]1F` ? true
